Tested on: Plasmodium berghei
Experiment: Screen against P. berghei liver stage (PbLuc), transformed with Luciferase, at 2uM
Format: functional, HepG2
Settings: tested at 2 uM
The whole screen tested about 68,000 compounds, of which about 2,700 (4%) showed an effect of 50% or more. The sample as a whole holds a higher share of strong results than the screen did.
Quantity kind: INHIBITION

{"columns": ["Compound", "Result"],
 "data": [
  ["Cc1ocnc1C(=O)N1CCCC1c1ccc(C(=O)N2CCSCC2)s1 (centres undefined)", "9.31%"],
  ["O=C1CCCN1Cc1nnc(SCc2ccc3c(c2)CCC3)o1", "52.31%"],
  ["CCc1ccc2c(c1)C(CCNC(=O)CCc1ccsc1)C(=O)N2 (centres undefined)", "57.16%"],
  ["CCN(CC)C(=O)c1nc2c(s1)CCN(Cc1cccc(OC)c1)CC2", "1.08%"],
  ["Cn1c(=O)oc2cc(Nc3nccnc3C#N)ccc21", "9.42%"],
  ["O=C(CCC(=O)NCc1cccc(Br)c1)NCCN1CCCC1", "-64.94%"],
  ["O=C(Cn1cc(C(=O)O)ccc1=O)NCc1ccc(F)c(Cl)c1", "11.14%"],
  ["CCc1ccc2c(c1)C(CCNC(=O)Cc1ccc(F)cc1)C(=O)N2 (centres undefined)", "33.22%"],
  ["CC(c1ccco1)N(C(=O)c1cc2c([nH]c1=O)CCCC2=O)C1CC1 (centres undefined)", "-8.3%"],
  ["COCC(=O)N1CC[C@H]2C[C@H](c3nnc(C4CC4)o3)O[C@@H]2C1", "50.61%"],
  ["O=C(c1cnccn1)N1C[C@@H]2[C@@H](C1)OCC(=O)N2CC1CCCC1", "31.65%"],
  ["CSc1sc2c(O)cc(=O)[nH]c2c1C(N)=O", "15.96%"],
  ["CCc1nccn1C1CCCN(C(=O)Cc2ccc(OC)c(F)c2)C1 (centres undefined)", "29.71%"],
  ["O=C(c1ccccn1)N1C[C@@H]2OCC(=O)N(CC3CCCCC3)[C@@H]2C1", "56.16%"],
  ["COC(=O)NCC(=O)NCC(C)(C)c1cccc(Br)c1", "19.07%"],
  ["CC(C)OC(=O)c1ccc(Cl)c(NC(=O)NCCN2CCOCC2)c1", "50.94%"],
  ["Cc1ccc(C)c2c1NC(=O)C2CC(=O)O (centres undefined)", "42.8%"],
  ["CC(C)Oc1ccc(CSc2nnc(CN3CCCC3=O)o2)cc1", "0.63%"],
  ["O=C1NCCN(Cc2ccccc2)C1CC(=O)N1CCc2n[nH]cc2C1 (centres undefined)", "50.32%"]
]}

###

Reported INHIBITION by item:
Tested on: Plasmodium berghei
Test: Screen against P. berghei liver stage (PbLuc), transformed with Luciferase, at 2uM
Format: functional, HepG2
Conditions: tested at 2 uM
Screen size: about 68,000 compounds; about 2,700 (4%) showed an effect of 50% or more. The list comes from a sample in which strong results are over-represented; it also holds close analogues and randomly drawn compounds.

{"columns": ["Compound", "Units of measure", "INHIBITION"],
 "data": [
  ["CC(C)C(=O)N1CCN(Cc2ccccn2)CC2(CC(=O)N(C)C2)C1 (stereo not drawn)", "%", 31.5],
  ["COC(=O)c1cccc(C(=O)N(C)Cc2ccsc2)c1", "%", -21.49],
  ["Cc1cc(CN(C)C(=O)c2ccc(F)c(C(F)(F)F)c2)no1", "%", 46.52],
  ["CCc1nc(-c2ccc(NC(=O)N3CCC4(CC3)OCCO4)cc2)no1", "%", -16.82],
  ["CCN1CCN(C(=O)NCc2cc[nH]n2)CC1", "%", 56.02],
  ["CC(C)c1nc(C2CCCN(C(=O)c3cccc4c3OCO4)C2)no1 (stereo not drawn)", "%", 17.59],
  ["O=C(NCc1cc[nH]n1)NCC(c1ccco1)N1CCCC1 (stereo not drawn)", "%", -4.1],
  ["Cc1ccc(C2(O)CCN(C(=O)CCn3ccc(=O)[nH]c3=O)CC2)nc1", "%", -3.56]
]}
